Source of measurements: PubChem BioAssay (NCI)

# System: BT-549 breast
# test details: NCI tumour cell line growth inhibition, 48 h
experimental endpoint: TGI

[[record]]
compound = "CC(=O)O[C@@H]1[C@H]2[C@@H](OC(=O)c3ccccc3)[C@@H](C)C[C@]2(O)[C@H](OC(C)=O)[C@@]2(C)[C@@H]3C[C@@](C)(OC(C)=O)C[C@@H](OC(C)=O)[C@@]3(OC(C)=O)C[C@@]12C"
result = "> 10 µM"

[[record]]
compound = "CCC(=O)C(CCN1CCC(N2C(=O)C(CCC#N)c3ccccc32)CC1)(c1ccccc1)c1ccccc1 (centres undefined)"
result = "26.2 µM"

[[record]]
compound = "CCN1C[C@]2(C)CC[C@H](OC)C34C5C[C@@H]6[C@@H](OC)C[C@@](OC)(C5[C@H]6OCc5ccccc5)C(C13)[C@H](OC(C)=O)[C@@H]42 (some centres undefined)"
result = "> 100 µM"

[[record]]
compound = "COc1cc(C(=O)C2CC3(CCC2(O)c2cc(OC)c(OC)c(OC)c2)CC(=O)Nc2ccccc2C3=O)cc(OC)c1OC (centres undefined)"
result = "> 100 µM"


Lab note: each compound below needs its TGI filled in.
1. COC1=C2CC(C)CC(OC)C(OC(=O)CCCN)C(C)/C=C(\C)C(OC(N)=O)C(OC)/C=C\C=C(/C)C(=O)NC(=CC1=O)C2=O (centres undefined)
2. COc1ccc(COc2cc3oc(=O)c4cc(C(C)O)ccc4c3cc2OC)cc1 (centres undefined)
3. Nc1nc(-c2ccc(Cl)cc2)nc2c1sc(=S)n2-c1ccccc1
4. Nc1ccc(-c2nc3ccc(F)cc3s2)cc1I
5. COc1cc(C(=O)/C=C/c2c(C(F)(F)F)nc3ccccn23)cc(OC)c1OC
6. COc1cc(/C=C/C(=O)O[C@H]2[C@H](O[C@@H]3O[C@@H](C)[C@H](O)[C@@H](O)[C@H]3O)[C@@H](O)[C@H](OCCc3ccc(O)c(O)c3)O[C@@H]2COC2OCC(O)(CO)C2O)ccc1O (some centres undefined)
7. O=[N+]([O-])/C=C/c1cn(CCCCCCCCCCCCn2cc(/C=C/[N+](=O)[O-])c3ccccc32)c2ccccc12
8. O=C(NCCCCCCCN1CCCCCCC1)C(C1CCCCC1)C1CCCCC1

["15.8 µM", "49.4 µM", "> 100 µM", "> 100 µM", "3.95 µM", "41.8 µM", "> 100 µM", "28.7 µM"]

Lab note: each compound below needs its TGI filled in.
1. C#CCNC(=O)NC(CCCCNC(=O)OCc1ccccc1)C(=O)OCc1ccccc1 (centres undefined)
2. CCN(Cc1ccc(F)cc1)c1ccc(CO)c(C(F)(F)F)c1
3. COc1cccc(C(NC2=NCCC=N2)c2cc3c(cc2O)OCO3)c1O (centres undefined)
4. S=C(NCc1ccc2c(c1)OCO2)N1CCN(c2ncnc3c2oc2ccccc23)CC1
5. O=C(O)CCCc1ccccc1

1: > 100 µM; 2: 28.3 µM; 3: 33.3 µM; 4: > 100 µM; 5: > 1000 µM

Lab note: each compound below needs its TGI filled in.
1. Cc1cccc(CNc2ncnc3[nH]ncc23)c1
2. BrCc1ccc(CBr)c2c1-c1c(CBr)ccc3ccc(CBr)c-2c13
3. CC(=O)NCCCCN(CCCNC(C)=O)C(=O)OCc1ccccc1

["> 100 µM", "> 100 µM", "> 100 µM"]

Lab note: each compound below needs its TGI filled in.
1. O=C(Nc1ccc2[nH]c(C(=O)N3CC(CCl)c4ccc([N+](=O)[O-])cc43)cc2c1)c1cc2ccccc2o1 (centres undefined)
2. O=c1n(-c2ccccc2)c(=O)n2c(-c3ccccc3)c(-c3ccccc3)n12

> 1100 µM
> 100 µM
